The measurements presented in this section are drawn from patent US20120142676A1.

- Tested on: human leukemia K562 cells
- assay-info: K562 cell growth inhibition assay (MTS)
- Assay type: cell-based
- test-conditions: Homo sapiens, K562, 72 h, 72 h incubation, read-out: Median growth inhibitory concentration (IC50) of K562 cells
observable: IC50 (µM)

Use the examples below as a reference point.
CCOC(=O)C1=C(C(F)(F)F)S(=O)(=O)CCS1(=O)=O ... 2.5
[O-][S+]1CCON=C1c1nnc(-c2cccc(Cl)c2)o1 (centres unmarked) ... 4
CC1=C(COc2ccccc2)S(=O)(=O)CCS1(=O)=O ... 0.6

P: O=C(Nc1ccccc1)C1=NOCC[S+]1[O-] (centres unmarked)
Q: O=C(Nc1ccccc1)C1=C(C(F)(F)F)S(=O)(=O)CCS1(=O)=O
Hi! Which is lower in terms of IC50, the first one P or the second one Q ? The response must carry the label of the picked entry.
P
